Assay: qHTS of pediatric cancer cell lines to identify multiple opportunities for drug repurposing: Primary screen for A673 cells (AID 1347092); further: nearly all actives have a fitted effect of over 45% in size; further: potency means the concentration at half of the fitted maximal effect
Details: A673 Ewing sarcoma viability, CellTiter-Glo ATP luminescence, 48 h; series mostly up to 46 µM
Results filed as inconclusive are left out. Active and inactive are the calls of the source. The call rests on the fitted dose curve; in most records, active means well fitted cell-killing curve with a large enough effect; inconclusive means small, poorly fitted or top-dose-only effect; inactive means no such curve, though single readings can be large or run the other way.
OUTCOME_MEASURE: Potency

Past entries and their recorded results:
[[record]]
molecule = "COc1ccc(CC2SC(=O)NC2=O)cc1C(=O)NCc1ccc(C(F)(F)F)cc1 (centres undefined)"
recorded_measurement = "inactive"

[[record]]
molecule = "N#Cc1c(O)c2c(-c3ccc(-c4ccccc4O)cc3)csc2[nH]c1=O"
recorded_measurement = "inactive"

[[record]]
molecule = "Cc1cc(N2CCOCC2)cc2[nH]c(-c3c(NC[C@@H](O)c4cccc(Cl)c4)cc[nH]c3=O)nc12"
recorded_measurement = "296 nM (active)"

[[record]]
molecule = "CN(C)CCCN=c1c2ccccc2n(C)c2[nH]c(=O)n(C)c(=O)c12"
recorded_measurement = "2960 nM (active)"

[[record]]
molecule = "COc1cccc(-c2ccc(NC(=O)C3=C(C(=O)O)CCC3)c(F)c2)c1"
recorded_measurement = "5900 nM (active)"

[[record]]
molecule = "COc1c(N2C[C@@H]3CCCN[C@H]3C2)c(F)cc2c(=O)c(C(=O)O)cn(C3CC3)c12"
recorded_measurement = "inactive"

[[record]]
molecule = "Cc1cc(Nc2cc(NC(=O)c3c(Cl)cccc3Cl)ccn2)nc(N)n1"
recorded_measurement = "1180 nM (active)"

[[record]]
molecule = "CCn1nnc2c(N3CCOCC3)nc(-c3ccc(NC(=O)Nc4ccc(C(=O)N5CCN(C)CC5)cc4)cc3)nc21"
recorded_measurement = "93.5 nM (active)"


Could you share which Potency value was measured for "O=C(Nc1cn[nH]c1-c1nc2ccc(CN3CCOCC3)cc2[nH]1)NC1CC1" ?
1480 nM (active)

* * *

Test: qHTS of pediatric cancer cell lines to identify multiple opportunities for drug repurposing: Primary screen for LAN-5 cells (AID 1347100)
Conditions: LAN-5 neuroblastoma viability, CellTiter-Glo luminescence, 48 h; series mostly up to 46 µM
Results filed as inconclusive are left out. Calls of active or inactive are those of the source. The call rests on the fitted dose curve; in most records, active means well fitted cell-killing curve with a large enough effect; inconclusive means small, poorly fitted or top-dose-only effect; inactive means no such curve, though single readings can be large or run the other way.
Entry note: the call must match one of active, inactive

[[record]]
test_smiles = "C=C1C(=CC=C2CCC[C@]3(C)[C@@H]([C@H](C)C=C[C@H](C)C(C)C)CC[C@@H]23)C[C@@H](O)C[C@@H]1O"
class_assignment = "active"

[[record]]
test_smiles = "Nc1ccccc1NC(=O)c1ccc(CNc2nccc(-c3cccnc3)n2)cc1"
class_assignment = "active"

[[record]]
test_smiles = "COc1c(N2C[C@@H]3CCCN[C@H]3C2)c(F)cc2c(=O)c(C(=O)O)cn(C3CC3)c12"
class_assignment = "inactive"

[[record]]
test_smiles = "Cn1cncc1[C@@](N)(c1ccc(Cl)cc1)c1ccc2c(c1)c(-c1cccc(Cl)c1)cc(=O)n2C"
class_assignment = "active"

[[record]]
test_smiles = "CC(C)C[C@H](NC(=O)CNC(=O)c1cc(Cl)ccc1Cl)B(O)O"
class_assignment = "active"


Recorded test outcome, item "COc1cccc2nc(-c3cccs3)nc(NN3C(=O)C=C(C)C3=O)c12"
active

Next molecule up: "COc1cc2c(Oc3ccc(-c4cnc(Nc5ccc(F)cc5)n(C)c4=O)cc3F)ccnc2cc1OCCCN1CCOCC1"
active

Param item: "COc1c(OCCCN2CCOCC2)ccc2c3n(c(=NC(=O)c4cnc(N)nc4)nc12)CCN3"
active

Also "CNC(=O)c1ccccc1Nc1nc(Nc2ccc(N3CCOCC3)cc2OC)ncc1Cl" , if possible.
active

* * *

Assay: qHTS profiling of the MIPE4 collection as inhibitors of Plasmodium falciparum (DD2) proliferation (Rep 2) (AID 743346)
Settings: P. falciparum Dd2 in erythrocytes, SYBR Green DNA, 72 h; at 28.5 µM (top of the series) unless noted
Procedure: Plasmodium falciparum is a virulent malarial parasite that kills 1-2 million people worldwide each year. […] Because mature erythrocytes lack DNA, only Plasmodium-derived DNA is detected. The SYBR Green viability assay was adapted from a method described previously (Plouffe et al., 2008). […] The following morning, fluorescence intensity at 485(14) nm excitation and 535(25) nm emission wavelengths was measured on an EnVision (Perkin Elmer) plate reader. […]
OUTCOME_MEASURE: parasite growth, % of control (lower = inhibition) (%)
Return type: number; implicit unit %.

Check out these entries, answers already filled in.
[[record]]
molecule = "N#CCNC(=O)c1ccc(-c2ccnc(Nc3ccc(N4CCOCC4)cc3)n2)cc1"
recorded_measurement = 13.1

[[record]]
molecule = "Cc1ccc2nc(NC(=O)CSc3nc4c(c(=O)n3-c3ccccc3)SCC4)sc2c1"
recorded_measurement = 72.4

[[record]]
molecule = "CC(=O)c1c(C)c2cnc(Nc3ccc(N4CCNCC4)cn3)nc2n(C2CCCC2)c1=O"
recorded_measurement = 9.82

[[record]]
molecule = "O=C(C=Cc1cccnc1)NCCCCC1CCN(C(=O)c2ccccc2)CC1"
recorded_measurement = 51

[[record]]
molecule = "CCCCCN(CCC12CC3CC(CC(C3)C1)C2)C(=O)NCCCc1ccncc1"
recorded_measurement = 13.6

[[record]]
molecule = "Clc1cccc(-c2nnnn2Cc2cccnc2)c1Cl"
recorded_measurement = 84.8


Need parasite growth, % of control (lower = inhibition) of O=C1CCC[C@@H]2[C@H]3CCC[N+]4([O-])CCC[C@@H](CN12)[C@@H]34 (stereo not given in full) , thanks.
61.6

* * *

System: Es-2
Assay: Primary qHTS to identify gynecologic anti-cancer compounds using libraries of approved drugs and bioactive compounds (AID 1345084); further: nearly all actives have a fitted effect of over 55% in size
Conditions: Gynecologic cancer cell panel viability, ATPlite luminescence, 48 h; series mostly up to 57.5 µM
Inconclusive results are not listed. Activity calls are given as the source filed them. Calls follow the shape of the dose curve; as a rule, active = well fitted cell-killing curve with a large enough effect; inconclusive = small, poorly fitted or top-dose-only effect, or effect the other way; inactive = flat fitted curve, though single readings scatter.
Outcome (select one): active, inactive

Solved entries:
[[record]]
compound = "COc1cc(-c2nn(C3CCC(N4CCN(C(C)=O)CC4)CC3)c3ncnc(N)c23)ccc1NC(=O)c1cc2ccccc2n1C (stereo not given)"
class_assignment = "inactive"

[[record]]
compound = "CC(C)(O)CCc1ccc(OCc2cc(-c3cccc(OC(F)F)c3)c3ncccc3c2)cc1"
class_assignment = "inactive"

[[record]]
compound = "C1Cc2[nH]nc(-c3nn[nH]n3)c2C1"
class_assignment = "inactive"


// return assay outcome for "Cc1ccc(CN2CCNCC2)cc1NC(=O)CNc1ccc(F)c(F)c1"
inactive

Another compound to check: "Nc1ncnc2c1c(-c1cnc3[nH]ccc3c1)nn2C1CCCC1"
active

* * *

Assay: Quantitative High-Throughput drug screen in 47 multiple myeloma cell lines against the NCATS MIPE library collection: XG6_PLB cell viability assay (AID 1919865); further: nearly all actives have a fitted effect of over 40% in size
Details: XG6 myeloma viability, CellTiter-Glo ATP luminescence, 48 h; series mostly up to 45.8 µM
Records with an inconclusive call do not appear. The source made the active and inactive calls. The call rests on the fitted dose curve; in most records, active means well fitted cell-killing curve with a large enough effect; inconclusive means small, poorly fitted or top-dose-only effect, or effect the other way; inactive means no such curve, though single readings can be large or run the other way.
Pick from true (1) = active, false (0) = inactive when you respond.

Consider the following illustrative entries.
[[record]]
molecule = "CC(=O)OCCN1C(=O)c2c(C)nc3ccc(S(=O)(=O)N4CCOCC4)cc3c2C1=O"
class_assignment = "false (0)"

[[record]]
molecule = "COc1cc(Nc2ncc(F)c(Nc3ccc4c(n3)N(COP(=O)(O)O)C(=O)C(C)(C)O4)n2)cc(OC)c1OC"
class_assignment = "true (1)"

[[record]]
molecule = "CN1CCN(c2ccc3nc(-c4c(N)c5c(F)cccc5[nH]c4=O)[nH]c3c2)CC1"
class_assignment = "true (1)"

[[record]]
molecule = "Cc1c(CN2CCN(S(C)(=O)=O)CC2)sc2c(N3CCOCC3)nc(-c3cnc(N)nc3)nc12"
class_assignment = "true (1)"

[[record]]
molecule = "CC(C)(O)CCc1ccc(OCc2cc(-c3cccc(OC(F)F)c3)c3ncccc3c2)cc1"
class_assignment = "true (1)"

[[record]]
molecule = "O=C(C=Cc1cccnc1)NCCCCC1CCN(C(=O)c2ccccc2)CC1"
class_assignment = "true (1)"

[[record]]
molecule = "COc1cccc2c(NCc3ccccc3)nc(-n3c(N)nc4ccccc43)nc12"
class_assignment = "true (1)"

[[record]]
molecule = "CN(c1ncccc1CNc1nc(Nc2ccc3c(c2)CC(=O)N3)ncc1C(F)(F)F)S(C)(=O)=O"
class_assignment = "true (1)"

[[record]]
molecule = "C1Cc2[nH]nc(-c3nn[nH]n3)c2C1"
class_assignment = "false (0)"

[[record]]
molecule = "Nc1ncnc2c1c(-c1cnc3[nH]ccc3c1)nn2C1CCCC1"
class_assignment = "true (1)"


# outcome recorded in this test, key = "COc1cc2c(Oc3ccc(-c4cnc(Nc5ccc(F)cc5)n(C)c4=O)cc3F)ccnc2cc1OCCCN1CCOCC1"
true (1)

* * *

Assay: qHTS of pediatric cancer cell lines to identify multiple opportunities for drug repurposing: Primary screen for A673 cells (AID 1347092); further: nearly all actives have a fitted effect of over 45% in size
Settings: A673 Ewing sarcoma viability, CellTiter-Glo ATP luminescence, 48 h; series mostly up to 46 µM
Procedure: Drug repurposing or repositioning has been offered as a strategy for drug development in oncology programs. […] We employed a titration-based paradigm (quantitative high-throughput screening or qHTS), where all compounds were tested at multiple concentrations for their effect on cell viability. […] Shen, M et al. Quantitative high-throughput phenotypic screening of pediatric cancer cell lines identifies multiple opportunities for drug repurposing. […]
Inconclusive results are not listed. Activity calls are given as the source filed them. Calls come from the whole dose curve; as a rule, active = well fitted cell-killing curve with a large enough effect; inconclusive = small, poorly fitted or top-dose-only effect; inactive = no such curve, though single readings can be large or run the other way.
Select the matching outcome among active, inactive

Here's what some known entries look like.
[[record]]
test_smiles = "COC(=O)C[C@](O)(CCCC(C)(C)O)C(=O)O[C@@H]1C(OC)=C[C@]23CCCN2CCc2cc4c(cc2[C@H]13)OCO4"
class_assignment = "inactive"

[[record]]
test_smiles = "CCCNC(=O)Nc1ccc(Oc2ncnc3cc(OC)c(OC)cc23)cc1Cl"
class_assignment = "inactive"

[[record]]
test_smiles = "CC(C)c1cnn2c(NCc3ccccc3)cc(N[C@@H](CO)[C@H](O)CO)nc12"
class_assignment = "active"

[[record]]
test_smiles = "O=C(O)Cn1nnc(-c2cc(N3CCC(Oc4cc(F)ccc4Br)CC3)no2)n1"
class_assignment = "active"


What classification did "Cc1[nH]nc2ccc(-c3cncc(OC[C@@H](N)Cc4ccccc4)c3)cc12" end up with in this test?
active

Reference source for all entries: PubChem BioAssay (NCATS)
